Measurement description: Oral bioavailability in Sprague-Dawley rat at 10 mg/kg, administered via gavage
Type: ADME, organism-based
Assay context: in vivo
Metric name: bioavailability

* CC1(C)N=C(N)N=C(N)N1OCCCOc1cc(Cl)c(Cl)cc1Cl | < 1%

----------
Measurement description: Apparent permeability across apical to basolateral side in human Caco2 cells at 50 uM after 90 mins by LC-MS/MS method
Type: ADME, cell-based
Assay context: Caco-2
Metric name: Papp A→B at 1.5 h, 50 µM

* CC1(C)N=C(N)N=C(N)N1OCCCOc1cc(Cl)c(Cl)cc1Cl | < 0.12 ×10⁻⁶ cm/s

----------
Test system: Mus musculus
Measurement description: Toxicity in Swiss mouse inoculated with parasite infected red blood cells assessed as mortality at 100 mg/kg/day, ip administered 4 hrs post infection on day 0, 1, 2 , 3 measured on day 4
Assay type: organism-based
Assay context: in vivo
Metric name: Activity

• N=C(N)/N=C(\N)SCc1cccc(Cl)c1 = Toxic
• N=C(N=C(N)N)SCc1cccc(I)c1 = Toxic
• N=C(N)/N=C(\N)SCc1ccccc1[N+](=O)[O-] = Toxic
• N=C(N)/N=C(\N)SCc1ccc(F)cc1 = Toxic
• N#Cc1ccc(CSC(=N)NC(=N)N)cc1 = Toxic
• N=C(N)/N=C(\N)SCc1ccc(OCc2cccc(Br)c2)cc1 = Toxic
• N=C(N)NC(=N)SCc1cccc([N+](=O)[O-])c1 = Toxic
• N=C(N)/N=C(\N)SCc1ccccc1C(F)(F)F = Toxic
• N=C(N)NC(=N)SCc1cccc(C(F)(F)F)c1 = Toxic
• Cc1ccc(CSC(=N)N=C(N)N)cc1 = Toxic
